Assay: self-splicing fitness, log relative to wild type (ln ratio); higher = more splicing; Tetrahymena group I intron in knt gene, E. coli kanamycin selection, DiMSum; sequences stand for … in CUCUCU…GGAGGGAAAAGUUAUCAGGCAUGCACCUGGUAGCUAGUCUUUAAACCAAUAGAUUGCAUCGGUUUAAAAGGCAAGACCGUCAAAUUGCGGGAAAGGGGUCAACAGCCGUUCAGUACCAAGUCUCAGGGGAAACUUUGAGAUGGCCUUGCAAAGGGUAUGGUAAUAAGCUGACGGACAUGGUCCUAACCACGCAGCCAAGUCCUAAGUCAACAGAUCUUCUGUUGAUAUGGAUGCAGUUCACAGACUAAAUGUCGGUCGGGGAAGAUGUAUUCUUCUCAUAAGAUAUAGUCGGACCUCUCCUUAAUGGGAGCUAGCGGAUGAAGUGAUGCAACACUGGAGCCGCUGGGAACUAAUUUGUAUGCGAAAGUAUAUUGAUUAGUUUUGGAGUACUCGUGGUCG;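 further: selection with 25 µg/mL kanamycin versus none on LB agar overnight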
Conditions: 37 °C
The threshold is inclusive: self-splicing fitness (ln) of exactly -2 counts as true (1); values below receive false (0).

# sequence-input, assigned-label
records = [
    ("AGAGAGCAAUAUUACGAAAG", "false (0)"),
    ("CGCCAGCAAUAUUACGUUCC", "true (1)"),
    ("AUCAAGCAAUAUUACGAAGA", "true (1)"),
    ("AACCAGCAAUAUUACGCACA", "true (1)"),
    ("UCGCAGCAAUAUUACGUUUG", "true (1)"),
]

* * *

Test: self-splicing fitness, log relative to wild type (ln ratio); higher = more splicing; Tetrahymena group I intron in knt gene, E. coli kanamycin selection, DiMSum; sequences stand for … in CUCUCU…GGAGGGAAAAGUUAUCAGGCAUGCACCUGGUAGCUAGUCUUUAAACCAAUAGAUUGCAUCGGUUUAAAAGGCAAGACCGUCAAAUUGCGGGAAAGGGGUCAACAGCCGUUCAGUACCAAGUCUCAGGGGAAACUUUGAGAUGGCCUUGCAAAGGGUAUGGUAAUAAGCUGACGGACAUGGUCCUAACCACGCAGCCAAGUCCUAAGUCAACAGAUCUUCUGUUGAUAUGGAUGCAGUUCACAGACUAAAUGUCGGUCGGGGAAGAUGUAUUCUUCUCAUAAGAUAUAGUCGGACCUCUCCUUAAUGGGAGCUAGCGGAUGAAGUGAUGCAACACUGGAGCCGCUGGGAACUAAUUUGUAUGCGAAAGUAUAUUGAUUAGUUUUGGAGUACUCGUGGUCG
Settings: 30 °C
Consider the following sequences and their measured self-splicing fitness (ln) readings.
endpoint-label: self-splicing fitness (ln)

# sequence-input, value-measured
records = [
    ("UGCUAGCAAUAUUACGUGAC", -3.39),
    ("GUUCAGCAAUAUUACGGACU", -3.7),
    ("ACACAGCAAUAUUACGCCUC", -2.92),
    ("GUGCAGCAAUAUUACGCUAG", -3.71),
    ("AGAAAGCAAUAUUACGAAUU", -0.791),
    ("AGAUAGCAAUAUUACGACAU", -0.0342),
    ("CUAAAGCAAUAUUACGGAGC", -3.27),
    ("CAUGAGCAAUAUUACGAUGC", -3.19),
    ("ACCCAGCAAUAUUACGCAGU", -0.609),
    ("CAAUAGCAAUAUUACGGGGG", -2.64),
    ("ACGGAGCAAUAUUACGACGA", -1.49),
    ("UGGCAGCAAUAUUACGAGAU", -1.46),
    ("AUAAAGCAAUAUUACGCAUG", -0.888),
    ("UCACAGCAAUAUUACGCUGG", -3.9),
    ("AUCAAGCAAUAUUACGUUUG", -2.87),
    ("GAGAAGCAAUAUUACGGGAC", -2.56),
    ("AACGAGCAAUAUUACGUGGC", -3.85),
    ("ACCUAGCAAUAUUACGCAAC", -1.98),
    ("ACACAGCAAUAUUACGCCGU", -2.08),
    ("CGCCAGCAAUAUUACGGGAU", -3.96),
    ("CCAGAGCAAUAUUACGUGGA", -4.15),
    ("AUAGAGCAAUAUUACGGCCU", -0.822),
    ("CCGAAGCAAUAUUACGGGUG", -0.732),
    ("CCUCAGCAAUAUUACGACUA", -3.2),
    ("GUCCAGCAAUAUUACGUUGA", -0.801),
    ("GACGAGCAAUAUUACGCGGG", -3.48),
    ("CUGGAGCAAUAUUACGCAGA", -3.56),
    ("AAUUAGCAAUAUUACGUUUU", -1.98),
    ("UGUUAGCAAUAUUACGCAAC", -2.82),
    ("CGUGAGCAAUAUUACGGGGG", -2.65),
]

// provenance: the supplement of paper PMC7877785
